assay: Drug uptake in human HeLa cells assessed as cytosolic entry efficiency measured as fluorescence at 5 uM incubated for 2 hrs by flow cytometry relative to CPP9 (100%); type: ADME, cell-based
Where a SMILES comes first, the peptide text is derived from it. Side-chain parts run from the residue outwards. [ ]: non-standard residue; d: D form. The star is where a group is joined. X1 = NC(=O)[C@H](CCCCNC(=O)c1ccc2c(c1)C(=O)OC21c2ccc3cc(O)ccc3c2Oc2c1ccc1cc(O)ccc21)N*; 2Nal = N[C@@H](Cc1ccc2ccccc2c1)C(=O)O; AEEA = NCCOCCOCC(=O)O
Rule: RFU of 8% or more gives 1; anything lower gives -1.

N=C(N)NCCC[C@@H]1NC(=O)[C@H](Cc2ccc3ccccc3c2)NC(=O)[C@@H](Cc2ccccc2)NC(=O)[C@H](CCC(=O)NCCOCCOCC(=O)N[C@@H](CCCCNC(=O)c2ccc3c(c2)C(=O)OC32c3ccc4cc(O)ccc4c3Oc3c2ccc2cc(O)ccc32)C(N)=O)NC(=O)[C@@H](CCCNC(=N)N)NC(=O)[C@H](CCCNC(=N)N)NC(=O)[C@@H](CCCNC(=N)N)NC1=O
1
CC(C)[C@@H]1NC(=O)[C@H](Cc2ccc(O)cc2)NC(=O)[C@H](CCCNC(=N)N)NC(=O)[C@H](CCCNC(=N)N)NC(=O)[C@@H]2CCCN2C(=O)[C@H]2CCCN2C(=O)[C@@H](CCCNC(=N)N)NC(=O)[C@H](Cc2ccc3ccccc3c2)NC(=O)[C@H](Cc2ccccc2)NC(=O)[C@H](CC(=O)NCCOCCOCC(=O)N[C@@H](CCCCNC(=O)c2ccc3c(c2)C(=O)OC32c3ccc4cc(O)ccc4c3Oc3c2ccc2cc(O)ccc32)C(N)=O)NC1=O
1
C[C@@H]1NC(=O)[C@H](CC(=O)O)NC(=O)[C@H](CCC(=O)NCCOCCOCC(=O)N[C@@H](CCCCNC(=O)c2ccc3c(c2)C(=O)OC32c3ccc4cc(O)ccc4c3Oc3c2ccc2cc(O)ccc32)C(N)=O)NC(=O)[C@H](CC(=O)O)NC(=O)[C@H](C)NC(=O)[C@H](CC(=O)O)NC(=O)[C@H](Cc2ccccc2)NC(=O)[C@H](CCCNC(=N)N)NC(=O)[C@H](CCCNC(=N)N)NC(=O)[C@@H]2CCCN2C(=O)[C@H]2CCCN2C(=O)[C@@H](CCCNC(=N)N)NC(=O)[C@H](Cc2ccc3ccccc3c2)NC(=O)[C@H](Cc2ccccc2)NC1=O
1
C[C@@H]1NC(=O)[C@H](Cc2ccc3ccccc3c2)NC(=O)[C@H](Cc2ccccc2)NC(=O)[C@H](C)NC(=O)[C@H](CCC(=O)NCCOCCOCC(=O)N[C@@H](CCCCNC(=O)c2ccc3c(c2)C(=O)OC32c3ccc4cc(O)ccc4c3Oc3c2ccc2cc(O)ccc32)C(N)=O)NC(=O)[C@H](Cc2ccccc2)NC(=O)[C@H](CCCNC(=N)N)NC(=O)[C@H](CCCNC(=N)N)NC(=O)[C@@H]2CCCN2C(=O)[C@H](C)NC1=O (cyclo([2Nal]AAPRRFE([AEEA-X1])AF))
1
C[C@@H]1NC(=O)[C@H](C)NC(=O)[C@H](Cc2ccccc2)NC(=O)[C@H](CCCNC(=N)N)NC(=O)[C@H](CCCNC(=N)N)NC(=O)[C@H](C)NC(=O)[C@H](C)NC(=O)[C@@H](CCCNC(=N)N)NC(=O)[C@H](Cc2ccc3ccccc3c2)NC(=O)[C@H](Cc2ccccc2)NC(=O)[C@H](C)NC(=O)[C@H](C)NC(=O)[C@H](CCC(=O)NCCOCCOCC(=O)N[C@@H](CCCCNC(=O)c2ccc3c(c2)C(=O)OC32c3ccc4cc(O)ccc4c3Oc3c2ccc2cc(O)ccc32)C(N)=O)NC(=O)[C@H](C)NC1=O
-1

Has C[C@@H]1NC(=O)[C@H](C)NC(=O)[C@H](CCCNC(=N)N)NC(=O)[C@H](CCCNC(=N)N)NC(=O)[C@H](CCCNC(=N)N)NC(=O)[C@@H]2CCCN2C(=O)[C@H]2CCCN2C(=O)[C@H](Cc2ccccc2)NC(=O)[C@H](Cc2ccc3ccccc3c2)NC(=O)[C@H](Cc2ccccc2)NC(=O)[C@H](C)NC(=O)[C@H](C)NC(=O)[C@H](CCC(=O)NCCOCCOCC(=O)N[C@@H](CCCCNC(=O)c2ccc3c(c2)C(=O)OC32c3ccc4cc(O)ccc4c3Oc3c2ccc2cc(O)ccc32)C(N)=O)NC(=O)[C@H](C)NC1=O a recorded RFU greater than or equal to 8%?
1

Has C[C@@H]1NC(=O)[C@H](C)NC(=O)[C@H](Cc2ccccc2)NC(=O)[C@@H](CCCNC(=N)N)NC(=O)[C@H](CCCNC(=N)N)NC(=O)[C@@H]2CCCN2C(=O)[C@H]2CCCN2C(=O)[C@H](CCCNC(=N)N)NC(=O)[C@H](Cc2ccc3ccccc3c2)NC(=O)[C@H](Cc2ccccc2)NC(=O)[C@H](C)NC(=O)[C@H](C)NC(=O)[C@H](CCC(=O)NCCOCCOCC(=O)N[C@@H](CCCCNC(=O)c2ccc3c(c2)C(=O)OC32c3ccc4cc(O)ccc4c3Oc3c2ccc2cc(O)ccc32)C(N)=O)NC(=O)[C@H](C)NC1=O a recorded RFU greater than or equal to 8%?
1

Has CC(C)[C@@H]1NC(=O)[C@H](Cc2ccc(OP(=O)(O)O)cc2)NC(=O)[C@H](CCCNC(=N)N)NC(=O)[C@H](CCCNC(=N)N)NC(=O)[C@@H]2CCCN2C(=O)[C@H]2CCCN2C(=O)[C@@H](CCCNC(=N)N)NC(=O)[C@H](Cc2ccc3ccccc3c2)NC(=O)[C@H](Cc2ccccc2)NC(=O)[C@H](CC(=O)NCCOCCOCC(=O)N[C@@H](CCCCNC(=O)c2ccc3c(c2)C(=O)OC32c3ccc4cc(O)ccc4c3Oc3c2ccc2cc(O)ccc32)C(N)=O)NC1=O a recorded RFU greater than or equal to 8%?
1

Has C[C@@H]1NC(=O)[C@H](C)NC(=O)[C@H](Cc2ccc3ccccc3c2)NC(=O)[C@H](CCCNC(=N)N)NC(=O)[C@H](CCCNC(=N)N)NC(=O)[C@@H]2CCCN2C(=O)[C@H]2CCCN2C(=O)[C@H](CCCNC(=N)N)NC(=O)[C@H](CCCNC(=N)N)NC(=O)[C@H](Cc2ccccc2)NC(=O)[C@H](C)NC(=O)[C@H](C)NC(=O)[C@H](CCC(=O)NCCOCCOCC(=O)N[C@@H](CCCCNC(=O)c2ccc3c(c2)C(=O)OC32c3ccc4cc(O)ccc4c3Oc3c2ccc2cc(O)ccc32)C(N)=O)NC(=O)[C@H](C)NC1=O a recorded RFU greater than or equal to 8%?
-1
